- method_summary: inhibitors of polyQ protein aggregation (AID 1604)
- condition: polyglutamine-induced protein aggregation inhibition assay; stronger effect = higher value; tested at 2.5 µM
Use YES when the recorded inhibition of aggregation is no lower than 60%; use NO when it is lower.

CCc1nc(N)nc(N)c1-c1ccc(Cl)cc1: YES
O=C1NC(=O)C(c2ccccc2)(c2ccccc2)N1: YES
O=C1C(CCS(=O)c2ccccc2)C(=O)N(c2ccccc2)N1c1ccccc1 (stereo not given): YES
CC[C@H](C)C(=O)O[C@H]1C[C@@H](C)C=C2C=C[C@H](C)[C@H](CC[C@@H]3C[C@@H](O)CC(=O)O3)[C@H]21: NO
